B1: ZNF263 (parent)
chain: FGGNPRFLSLHRAHLGEEAHKCLE

Variants of: B1
Experiment: protein stability index of a GFP-peptide fusion (GPS, HEK-293T) (PSI 1-6); higher = more stable;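 also: lentivirally expressed fusions sorted by FACS into six bins by GFP to DsRed ratio, PSI derived from sequencing read proportions per bin multiplied by bin number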
Details: c terminus: a fixed tail appended
Observed Property: protein stability index
Answer with the value's number alone.

The following variants have reported results that may help.
FGGNPRFLSAHRAHLGEEAHKCLE [L10A]: 1.74
FGGNPRCLSLHRAHLGEEAHKCLE [F7C]: 2.31
FGYNPRFLSLHRAHLGEEAHKCLE [G3Y]: 1.78

Now examine the next entry.
Problem: Which protein stability index is reported for this variant? FGGNPRFLSLHRAHLGEEAHKVLE [C22V]
Result: 2.51

src = the supplement of paper PMC10567573
